# protein stability index annotations
B1: FADS1 (parent)
chain: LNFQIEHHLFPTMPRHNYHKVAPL

Variants of: B1
Assay info: protein stability index of a GFP-peptide fusion (GPS, HEK-293T) (PSI 1-6); higher = more stable;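 further: lentivirally expressed fusions sorted by FACS into six bins by GFP to DsRed ratio, PSI derived from sequencing read proportions per bin multiplied by bin number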
Test settings: c terminus: a fixed tail appended

Mutation notation: P14H
protein stability index: 1.9
--
Mutation notation: F10I
protein stability index: 2.97
--
Mutation notation: M13V
protein stability index: 2.6
--
Mutation notation: P14G
protein stability index: 2.43
--
Mutation notation: P11N
protein stability index: 2.27
--
Mutation notation: H16I
protein stability index: 2.46
--
Mutation notation: T12M
protein stability index: 1.73
--
Mutation notation: H19K
protein stability index: 2.3
--
Mutation notation: P14L
protein stability index: 1.18
--
Mutation notation: P14D
protein stability index: 2.52
--
Mutation notation: Y18A
protein stability index: 2.95
